Below, each entry is listed with its recorded kon.
Target: T1, huZIP12-ECD-GST (human, UniProt Q504Y0 24-202)
T1 construct: also called hZIP12-ECD-GST; human ZIP12-ECD-GST; not shown: glutathione S-transferase (GST) tag
T1 sequence (Q504Y0 24-202): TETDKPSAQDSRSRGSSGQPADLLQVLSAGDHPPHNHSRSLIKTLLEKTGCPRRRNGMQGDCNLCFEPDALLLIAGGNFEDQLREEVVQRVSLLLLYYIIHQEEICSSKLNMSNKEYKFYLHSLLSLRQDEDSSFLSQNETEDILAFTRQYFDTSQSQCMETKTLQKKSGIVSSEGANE
Assay: SPR single cycle kinetics (Biacore): mAb captured on protein A, huZIP12-ECD-GST injected at 3.12-800 nM
measuredAttribute: kon

# binder, result
rows = [
    ("H2_T63Y_L2 (antibody, V domains shown, Fc null human IgG1 / human kappa) VH: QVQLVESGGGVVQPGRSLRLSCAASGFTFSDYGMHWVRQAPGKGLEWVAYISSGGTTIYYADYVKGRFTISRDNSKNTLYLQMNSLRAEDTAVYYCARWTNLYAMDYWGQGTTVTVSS VL: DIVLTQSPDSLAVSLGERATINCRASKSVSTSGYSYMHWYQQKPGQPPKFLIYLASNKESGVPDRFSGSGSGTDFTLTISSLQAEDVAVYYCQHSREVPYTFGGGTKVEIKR", "26700 M⁻¹ s⁻¹"),
    ("H2_T57H_L2 (antibody, V domains shown, Fc null human IgG1 / human kappa) VH: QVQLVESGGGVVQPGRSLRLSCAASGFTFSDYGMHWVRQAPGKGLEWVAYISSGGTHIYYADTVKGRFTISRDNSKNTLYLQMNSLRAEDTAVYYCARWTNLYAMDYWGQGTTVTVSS VL: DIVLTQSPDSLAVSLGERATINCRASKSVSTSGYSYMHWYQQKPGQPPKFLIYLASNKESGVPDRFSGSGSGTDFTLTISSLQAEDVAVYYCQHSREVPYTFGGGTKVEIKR", "38600 M⁻¹ s⁻¹"),
    ("H2_T56H_VL-par (antibody, V domains shown, Fc null human IgG1 / human kappa) VH: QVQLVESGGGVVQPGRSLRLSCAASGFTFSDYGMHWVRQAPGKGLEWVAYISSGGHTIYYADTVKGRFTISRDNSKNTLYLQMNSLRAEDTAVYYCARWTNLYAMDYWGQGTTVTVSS VL: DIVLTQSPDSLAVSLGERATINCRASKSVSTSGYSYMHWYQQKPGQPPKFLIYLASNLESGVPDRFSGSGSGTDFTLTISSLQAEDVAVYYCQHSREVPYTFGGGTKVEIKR", "26200 M⁻¹ s⁻¹"),
]
